MEASURED_TARGET: T1, Ser-hPRLR(1-210) (human, UniProt P16471 25-234)
T1 construct: range 1-210; Amine-coupled to a CM5 chip in the SPR assay; also called soluble form of the receptor; PRL receptor
T1 sequence: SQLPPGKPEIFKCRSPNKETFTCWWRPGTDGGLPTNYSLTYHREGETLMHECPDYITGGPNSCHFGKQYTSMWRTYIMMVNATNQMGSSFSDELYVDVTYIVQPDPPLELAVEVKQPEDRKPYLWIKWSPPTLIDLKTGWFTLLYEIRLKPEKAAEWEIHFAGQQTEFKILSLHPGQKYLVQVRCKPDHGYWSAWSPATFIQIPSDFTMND
ASSAY_DETAILS: SPR (Biacore T100), receptor amine-coupled to CM5 chip, ligand injected
ASSAY_METRIC: Kd (nM)
Express your answer in nM, writing the number without its unit.

Guide cases for Kd, answers given:
| BINDER | Kd [nM] |
| --- | --- |
| Disulfide bridged PRL 12-199 Q12S E128C dimer (ligand, intermolecular disulfide bridge between Cys 128 of the two monomers, also called PRL dimer 1; 0033) SVTLRDLFDRAVVLSHYIHNLSSEMFSEFDKRYTHGRGFITKAINSCHTSSLATPEDKEQAQQMNQKDFLSLIVSILRSWNEPLYHLVTEVRGMQEAPEAILSKAVEIEEQTKRLLCGMELIVSQVHPETKENEIYPVWSGLPSLQMADEESRLSAYYNLLHCLRRDSHKIDNYLKLLKCRIIHNNNC | 6 |
| Disulfide bridged PRL 12-199 Q12S R125C dimer (ligand, intermolecular disulfide bridge between Cys 125 of the two monomers) SVTLRDLFDRAVVLSHYIHNLSSEMFSEFDKRYTHGRGFITKAINSCHTSSLATPEDKEQAQQMNQKDFLSLIVSILRSWNEPLYHLVTEVRGMQEAPEAILSKAVEIEEQTKCLLEGMELIVSQVHPETKENEIYPVWSGLPSLQMADEESRLSAYYNLLHCLRRDSHKIDNYLKLLKCRIIHNNNC | 20 |
| Disulfide bridged PRL 12-199 Q12S S61A E128C dimer (ligand, intermolecular disulfide bridge between Cys 128 of the two monomers) SVTLRDLFDRAVVLSHYIHNLSSEMFSEFDKRYTHGRGFITKAINSCHTASLATPEDKEQAQQMNQKDFLSLIVSILRSWNEPLYHLVTEVRGMQEAPEAILSKAVEIEEQTKRLLCGMELIVSQVHPETKENEIYPVWSGLPSLQMADEESRLSAYYNLLHCLRRDSHKIDNYLKLLKCRIIHNNNC | 3 |

Entry PRL(12-199) Q12S G129R (ligand, Monomeric prolactin receptor antagonist analogue; also called PRL G129R analog) SVTLRDLFDRAVVLSHYIHNLSSEMFSEFDKRYTHGRGFITKAINSCHTSSLATPEDKEQAQQMNQKDFLSLIVSILRSWNEPLYHLVTEVRGMQEAPEAILSKAVEIEEQTKRLLERMELIVSQVHPETKENEIYPVWSGLPSLQMADEESRLSAYYNLLHCLRRDSHKIDNYLKLLKCRIIHNNNC : reported Kd = ?
30
